# Assay Text: amyloid nucleation score (Sup35N fusion, yeast selection) (log enrichment); library NNK1; higher = more nucleation; inactive = no reads after selection;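 also: zero at mode of non-aggregating sequences after 7 days selection at 30°C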
So basically every entry gets a class from its amyloid nucleation score, ranges being category 1 = under -0.008, category 2 = from -0.008 up to 0.5, category 3 = 0.5 and over

// known answers, use as guide
MYLVDASMSKPLIVLKSCN	category 3
SNEVYWQ	category 3
TEGLKVTLIHTTPLFCP	category 2
LNNTVEDPA	category 3
IRCLGISRIFLVYRSVPFWI	category 2

(Q) Could you place VDLIPLEGVRGAWLQASQRG in its proper category? Many thanks.
(A) category 3

(Q) # classify by amyloid nucleation score band: NYHMIVRLASLKKQW
(A) category 2

(Q) Bin? SPMMVNVYATDDVDLPSWLM
(A) category 1

(Q) Consider KVRHNVVLG . To which amyloid nucleation score class does it belong?
(A) category 1

(Q) Place this substance in its band: ICDRAWRCFKTKSTQPVTVS
(A) category 1

(Q) Record MQFCVEYTRPVRYQLWGSLM — which class?
(A) category 2

(Q) Record QCLRWDPGI — which class?
(A) category 3

(Q) Assign a bin to KMECVVRVSGCRDKVDWTAG
(A) category 3

(Q) Input RVSKFPKSFNVSFKADNKIH ; output its category
(A) category 3

----------
# Assay Text: amyloid nucleation score (Sup35N fusion, yeast selection) (log enrichment); library NNK3; higher = more nucleation; inactive = no reads after selection
Readout Kind: amyloid nucleation score

Solved entries (count: 5):
VFYGLYF	inactive
WACCGICSCL	2.02
SLMCLLVRLLIKN	inactive
VLACSHWLMLSRTKYMMRIV	inactive
SMWYASFTYESYLCLFKESR	inactive

(Q) Give amyloid nucleation score for the following substance: MYTISVKAMNGWYLSLKVGC
(A) inactive

(Q) Return amyloid nucleation score (reported value) for this substance: HYNSSSFRVGPCVSLGNHTQ
(A) inactive

(Q) Give a short answer stating reported amyloid nucleation score for NFYRFNIVRNNVLM .
(A) inactive

(Q) Query amyloid nucleation score for GSDSVAGHYFSFVYKVIAEF
(A) 0.292

----------
# Assay Text: amyloid nucleation score (Sup35N fusion, yeast selection) (log enrichment); library NNK2; higher = more nucleation; inactive = no reads after selection
Readout Kind: amyloid nucleation score

Please review the entries below; each comes with its answer.
IRANGDKSVYM	2.21
VYTTDLPFIYVLSVFMFIHG	-0.447
NAYLVSRVIKLIVLSKWYRY	0.689
WYSSSIGHKMWVTYGSLWGQ	0.505
FLNPFNHREHPRVED	0.775

Could you now look at the following substance, please?
(Q) Specify measured amyloid nucleation score for TFRIERSVGWYCNRASYSCK .
(A) 1.02

----------
# Assay Text: amyloid nucleation score (Sup35N fusion, yeast selection) (log enrichment); library NNK1; higher = more nucleation; inactive = no reads after selection
Readout Kind: amyloid nucleation score
Just the number, please, no unit attached.

ESHLRASAGLWLSAGRDCNG	1.38
IKMRWISFKCLPYCMFKNRI	-0.355
CYSRAYEEARSAI	1.21
AWYWAMAIMRVSIKVWPLLL	-0.713
QKAAVEQGLSRFGEGVTP	0.886
TQVWKPLHKTSLHYSDREVS	-0.111

(Q) Could you please provide reported amyloid nucleation score for SRCNHICHNYISMFLINCEL ? Thanks!
(A) 5.71

(Q) Note amyloid nucleation score for the sequence shown: NCSDQALDLQGSMSVQKIFR
(A) -0.533

(Q) Quick one: give measured amyloid nucleation score for LAEWRLYLRRTVWYLRILIR
(A) -0.066

(Q) Supply reported amyloid nucleation score belonging to this sequence: IRLIKIPVKFKFVSTMCSGC
(A) -0.1

(Q) Answer with the recorded amyloid nucleation score of VLWTLVKIPHFTPNIMFRYY only.
(A) 0.053

----------
# Assay Text: amyloid nucleation score (Sup35N fusion, yeast selection) (log enrichment); library NNK2; higher = more nucleation; inactive = no reads after selection
Outcome: 1 for amyloid nucleation score of at least -0.07; -1 for anything lower.

TIVYWSTTRTTAPGDDRESV	1
HVMNGCGLYGQGSSRYYQTV	1
PCSRPTLLPCHCGTTTTSHI	1

(Q) Exam item: decide whether the reported amyloid nucleation score for MSGAFVYAWCLRTGKCTQAG is at least -0.07.
(A) -1

(Q) Please check the record KILNDWADMKSRLMGRLLGE and state if its amyloid nucleation score is at or above -0.07.
(A) 1

(Q) Say whether TVGLIRLRLSILYFGPLDSV shows amyloid nucleation score of -0.07 or more.
(A) 1

(Q) Reported amyloid nucleation score at or above -0.07? YKFLLFFYVDTSYVMLFSGF
(A) -1

(Q) amyloid nucleation score >= -0.07 for RCSTFFEYSQTIPHYLVTLF ?
(A) -1

(Q) Would you say LGMSGCVCSYVYLRGFGLIL shows amyloid nucleation score at minimum -0.07?
(A) -1

(Q) Would you say WRYYAGWYESWSTAGQTCTF shows amyloid nucleation score at minimum -0.07?
(A) -1

(Q) Does LLVAEVV have a reported amyloid nucleation score of at least -0.07?
(A) 1

----------
# Assay Text: amyloid nucleation score (Sup35N fusion, yeast selection) (log enrichment); library NNK3; higher = more nucleation; inactive = no reads after selection
Readout Kind: amyloid nucleation score

LVDLRTVSYTLSQKMKFGGS	inactive
LSAADSMCGKRCLRGTP	inactive
NATIFFMQ	0.605
LYLQVALRTWLLSRWDLDDI	inactive
LFNSRMCMPRFASASNLACL	inactive

(Q) Supply amyloid nucleation score value. Item: KMDQYCWGFFVSWYMRKKVF
(A) inactive

(Q) Name the recorded amyloid nucleation score of the sequence listed here: NTWISMVCLLLLSDSNHTVV
(A) 1.84

(Q) Let me know recorded amyloid nucleation score for SLKEVSFWSASRDDGGDRMQ , thanks.
(A) inactive

(Q) Item NKVTLGYMFITSLVRTSS : provide amyloid nucleation score
(A) 0.491

----------
# Assay Text: amyloid nucleation score (Sup35N fusion, yeast selection) (log enrichment); library NNK2; higher = more nucleation; inactive = no reads after selection
Readout Kind: amyloid nucleation score
Please respond with just the number, no unit label.

FCVISKGRHVSMRTTSGFLE	-0.834
YKETFGIA	-1.36
VEWCRMVGWSFECEASEKHW	4.33
IACIEHWALGWLLCVSGVRV	0.534
FNLLARMIVYGIVLSQGKTG	-0.01

(Q) Using the record for VCVGYFCC , state its measured amyloid nucleation score.
(A) 5.79

(Q) Write down amyloid nucleation score measured for item GMNAAGEVWVRGWTSGCMVY
(A) 0.225

(Q) For the substance YGQLRHFVRTGLDGGTHRGL , report amyloid nucleation score.
(A) -0.174

(Q) Tell us which amyloid nucleation score value is on record for GIGFKWGTILLKSLGNIYSQ
(A) -0.263

(Q) // fetch amyloid nucleation score given entry SEERPKETRGGFWARVSSGG
(A) 0.228

(Q) Consider the substance SECMIRFVNYADGTFNIGHS and give its recorded amyloid nucleation score.
(A) -0.22

(Q) In one line, give reported amyloid nucleation score of the entry SGGAVAYREAKWWSASNLRS .
(A) 0.373

----------
# Assay Text: amyloid nucleation score (Sup35N fusion, yeast selection) (log enrichment); library NNK2; higher = more nucleation; inactive = no reads after selection
Readout Kind: amyloid nucleation score
// print number alone

RSLDIARAY	-1.06

Please examine the following record next.
(Q) Report amyloid nucleation score, nothing else, for this sequence: FCLNATKAWFVLGVMYLDHW
(A) -0.805

----------
# Assay Text: amyloid nucleation score (Sup35N fusion, yeast selection) (log enrichment); library NNK3; higher = more nucleation; inactive = no reads after selection
Readout Kind: amyloid nucleation score

HVAKVGTFNWTHNGYDNCFV	inactive
IYAPRR	inactive
LIGLMWFVMWFFMARMREIN	inactive
RTHRRKSDTVMLES	inactive
THGREGYASSSSSLGPGSIS	-0.08
LQSSMSIYSQFWSVDSLFYE	0.04
GENIEYMF	0.025
KNREVANYNDMYSDPILG	inactive

(Q) Input FKTCPKCSSSCCIFICPCSV , output reported amyloid nucleation score.
(A) 0.753

(Q) Using the record for TYGGLFLVHTVYVVALNWVR , state its measured amyloid nucleation score.
(A) inactive

(Q) Please list amyloid nucleation score recorded for the substance DAWDDNYNASRIGFAYMYSI
(A) inactive

(Q) Specify reported amyloid nucleation score for the substance shown: MYRQGGCVIHWSNVG
(A) inactive

(Q) Tell us which amyloid nucleation score value is on record for RAITSVSYVWTGRCL
(A) 0.803

(Q) Fill in amyloid nucleation score for record SGFLYCNLSKSSCYAFQAGG
(A) inactive

(Q) Give the reported amyloid nucleation score for this substance. KTLWHEVRGDDSNVSSCWFS
(A) inactive

(Q) Note amyloid nucleation score for the substance shown: RSLCQQYQRFSSLRKVIGLS
(A) inactive

(Q) Consider the substance WARIYKMLIF . State its measured amyloid nucleation score.
(A) inactive
